B1: OR3A1 (parent)
chain: PMYFFLGNLSVLDVGCISVTVPSM

Variants of: B1
Test: protein stability index of a GFP-peptide fusion (GPS, HEK-293T) (PSI 1-6); higher = more stable;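 also: lentivirally expressed fusions sorted by FACS into six bins by GFP to DsRed ratio, PSI derived from sequencing read proportions per bin multiplied by bin number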
Settings: c terminus: a fixed tail appended
Label rule, in plain words: protein stability index of 3 and up is class 1, under 3 is class 0.

P22W = class 1

Then there is this variant:
Query :: Reported protein stability index reaches at least 3 for S18V ?
Result :: class 0

Sourced from the supplement of paper PMC10567573
